B1: TMEM175 (parent)
chain: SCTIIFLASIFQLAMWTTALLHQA

# Variants of: B1
# experiment: protein stability index of a GFP-peptide fusion (GPS, HEK-293T) (PSI 1-6); higher = more stable;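 note: lentivirally expressed fusions sorted by FACS into six bins by GFP to DsRed ratio, PSI derived from sequencing read proportions per bin multiplied by bin number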
# cond: c terminus: a fixed tail appended
Please note: T applies when protein stability index is 3 or greater, and F applies otherwise.

    mutationcode  qualitativelabel
 0          W16Y                 T
 1           I4P                 T
 2          A14P                 F
 3           I5M                 T
 4           F6S                 F
 5           F6K                 F
 6          T17V                 F
 7          W16P                 F
 8           L7A                 T
 9          F11C                 F
10          H22W                 T
11           L7N                 T
12          T18C                 T
13          L21P                 T
14          F11L                 F
15          L21D                 T
16           A8D                 T
17          L21N                 F
18           S1N                 F
19           L7H                 T
20          M15Q                 F
21          I10C                 F
22          M15H                 F
23          A19F                 T
24          Q12F                 F
25          A19D                 F
26          T17R                 F
27          T17A                 F
28          A24I                 T
29           I5P                 F
30           I5G                 F
31          Q23M                 T
32           C2Y                 F
33          Q12C                 T
34          L13A                 F
35          I10M                 T
36          A19P                 T
37           S9M                 F
38          Q23F                 T
39          L20R                 T
40          L21K                 T
41          Q12P                 F
42          T17W                 T
43          F11V                 F
44          A19V                 F
45           L7G                 T
46          T17P                 F
47          A14M                 T
48           F6C                 T
49           T3V                 F
50          W16V                 T
51           L7M                 F
52          L13S                 T
53           L7F                 F

Data origin, for the record: the supplement of paper PMC10567573
